Tested System: LepB Δ2-76 (Escherichia coli, UniProt P00803)
Sequence (P00803 76-324, looked up, stated change not applied): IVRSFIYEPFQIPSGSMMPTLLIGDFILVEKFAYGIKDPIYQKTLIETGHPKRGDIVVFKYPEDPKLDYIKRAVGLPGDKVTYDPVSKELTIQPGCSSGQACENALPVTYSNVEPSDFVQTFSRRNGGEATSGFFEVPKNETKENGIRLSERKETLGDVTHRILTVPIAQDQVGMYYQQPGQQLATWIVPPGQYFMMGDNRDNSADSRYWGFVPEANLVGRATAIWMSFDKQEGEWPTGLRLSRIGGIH
Peptide text beside a SMILES is read from it.
Parameter Measured: pIC50
On this scale, pIC50 is minus log10 of a concentration expressed in M (mol/L).

Ask: Can you share its pIC50? I mean this compound: C[C@H](N)C(=O)N[C@@H](C)C(=O)N[C@@H](Cc1ccccc1)C(=O)N[C@@H](CCC(=O)O)C(=O)O [Peptide 11] (H-AAFE-OH)
Reply: 2.42
